target: human ether-à-go-go-related gene (hERG) potassium channel (human); assay: primary screen, population patch clamp on CHO cells stably expressing hERG; higher = less effect of the substance;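 also: peak tail current of the secondary pulse compared with the same well before compound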
The whole screen tested about 310,000 compounds, of which about 14,000 (4.5%) showed an effect of 50% or more. The effect is printed as a negative number. The sample holds strong results, similar compounds and a random draw of the others, so the mix is not that of the screen.
measured_quantity: hERG current change (%, negative = inhibition) at 10uM

Worked cases, hERG current change (%, negative = inhibition) at 10uM given:
1) COc1ccc(CNC(C)C2COc3ccccc3O2)c(OC)c1.O=C(O)C(=O)O (stereo not shown) = -63.2%
2) CCCCCCCNC(=O)CN1C(=O)CSc2ccc(S(=O)(=O)N3CCOCC3)cc21 = -17.7%
3) COc1ccc(CC(=O)NC(C)C2COc3ccccc3O2)cc1OC (stereo not shown) = -0.81%
4) CC(NCc1ccccc1)C1COc2ccccc2O1 (stereo not shown) = 2.12%
5) CCOC(=O)CCNC(C)C1COc2ccccc2O1.O=C(O)C(=O)O (stereo not shown) = 1.93%

List the reported hERG current change (%, negative = inhibition) at 10uM of each compound below.
1. CC1CCN(S(=O)(=O)c2ccc3c(c2)N(CC(=O)NCCCN2CCCCC2)C(=O)CS3)CC1
2. CCCc1cc(=O)c2c(O)cccc2o1
3. CC1CCCCN1C(=S)NC(=O)c1cc(Br)ccc1Cl (stereo not shown)

1: -10.6%; 2: 5.41%; 3: 4.09%

List the reported hERG current change (%, negative = inhibition) at 10uM of each compound below.
1. CC1CCN(S(=O)(=O)c2ccc3c(c2)N(CC(=O)NCc2cccnc2)C(=O)CS3)CC1
2. COc1ccc(CNC(=O)C2COc3ccccc3O2)c(OC)c1 (stereo not shown)

["-53.3%", "-26.4%"]

###

molecular target: human ether-à-go-go-related gene (hERG) potassium channel (human, UniProt Q12809); assay: primary screen, population patch clamp on CHO cells stably expressing hERG; higher = less effect of the substance;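 also: peak tail current of the secondary pulse compared with the same well before compound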
Sequence (Q12809 whole entry, looked up): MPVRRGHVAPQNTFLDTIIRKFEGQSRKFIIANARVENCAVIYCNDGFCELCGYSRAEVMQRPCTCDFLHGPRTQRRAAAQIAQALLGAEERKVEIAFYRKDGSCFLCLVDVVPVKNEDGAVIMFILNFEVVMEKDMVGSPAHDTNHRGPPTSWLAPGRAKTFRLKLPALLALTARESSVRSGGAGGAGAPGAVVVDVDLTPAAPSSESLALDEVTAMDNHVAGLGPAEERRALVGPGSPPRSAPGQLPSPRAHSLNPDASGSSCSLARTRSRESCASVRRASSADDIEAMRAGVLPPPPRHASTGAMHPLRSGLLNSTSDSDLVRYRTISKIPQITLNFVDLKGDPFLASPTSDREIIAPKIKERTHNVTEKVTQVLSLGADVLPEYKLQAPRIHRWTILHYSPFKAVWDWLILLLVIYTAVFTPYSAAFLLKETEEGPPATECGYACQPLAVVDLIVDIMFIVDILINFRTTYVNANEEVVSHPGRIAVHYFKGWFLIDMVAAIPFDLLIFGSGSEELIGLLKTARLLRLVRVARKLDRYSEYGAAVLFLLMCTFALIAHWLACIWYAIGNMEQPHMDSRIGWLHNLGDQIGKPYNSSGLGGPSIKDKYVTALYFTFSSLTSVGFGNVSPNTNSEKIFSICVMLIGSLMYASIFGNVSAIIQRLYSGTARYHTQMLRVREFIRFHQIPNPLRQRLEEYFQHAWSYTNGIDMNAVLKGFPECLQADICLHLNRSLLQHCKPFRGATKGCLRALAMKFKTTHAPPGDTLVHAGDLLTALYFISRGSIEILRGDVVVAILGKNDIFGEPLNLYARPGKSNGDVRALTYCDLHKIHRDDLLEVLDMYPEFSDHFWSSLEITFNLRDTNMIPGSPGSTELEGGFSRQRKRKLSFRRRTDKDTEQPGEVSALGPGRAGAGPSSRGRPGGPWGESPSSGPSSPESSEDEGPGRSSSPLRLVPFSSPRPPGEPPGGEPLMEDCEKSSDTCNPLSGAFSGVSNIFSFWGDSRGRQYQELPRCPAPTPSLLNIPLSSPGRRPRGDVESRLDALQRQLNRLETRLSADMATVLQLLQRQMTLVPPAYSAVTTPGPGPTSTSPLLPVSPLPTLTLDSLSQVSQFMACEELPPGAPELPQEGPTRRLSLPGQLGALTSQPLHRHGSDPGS
In all, about 310,000 compounds went through this assay and about 14,000 (4.5%) showed an effect of 50% or more. The effect is printed as a negative number. The sample holds strong results, similar compounds and a random draw of the others, so the mix is not that of the screen.
measured_quantity: hERG current change (%, negative = inhibition) at 10uM (%)
Answers are plain numbers, in %.

List the reported hERG current change (%, negative = inhibition) at 10uM of each compound below.
1. Oc1cc2ccccc2cc1-c1nnc2n1-c1ccccc1SC2
2. Cc1cccc(NCC(=O)N/N=C\c2cccc(Oc3ccccc3)c2)c1
3. O=C1Nc2ccc(C(F)(F)F)cc2N2CCCC12 (stereo not shown)
4. Brc1nnc2n1-c1ccccc1Sc1ccccc1-2
5. Cl.NCCC(=O)N1c2ccccc2Sc2ccc(Cl)cc21
6. Cc1cc(C)c2nc(N3CCC(C(=O)N4CCN(C(=O)c5ccco5)CC4)CC3)sc2c1
7. Clc1ccc2c(c1)-c1nnc(Br)n1-c1ccccc1S2

1: -8.27; 2: 20.1; 3: -1.52; 4: -71.8; 5: -10.8; 6: -77.1; 7: -52.5

List the reported hERG current change (%, negative = inhibition) at 10uM of each compound below.
1. Cc1cc2nc(N3CCN(C(=O)c4ccco4)CC3)sc2cc1C
2. COc1ccc(Cc2nnc(SCC(=O)Nc3ccc(N4CCOCC4)cc3)n2C)cc1
3. c1ccc2c(c1)Sc1ccccc1-n1cnnc1-2

[0.152, 8.93, -20.3]

###

target: human ether-à-go-go-related gene (hERG) potassium channel (human, UniProt Q12809); test: primary screen, population patch clamp on CHO cells stably expressing hERG; higher = less effect of the substance;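 also: peak tail current of the secondary pulse compared with the same well before compound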
About 14,000 (4.5%) of roughly 310,000 compounds showed an effect of 50% or more. Effects have a minus sign here. Many of the other results were omitted from the sample, so strong results are more common in it than they were.
Kindly supply the reported hERG current change (%, negative = inhibition) at 10uM values for the records listed here.

1) O=C(Nc1ncc(Cc2ccccc2)s1)C1COc2ccccc2O1 (stereo not shown) = -0.581%

List the reported hERG current change (%, negative = inhibition) at 10uM of each molecule below.
1. Cc1ccc(/C=N/n2c(COc3ccccc3)n[nH]c2=S)s1
2. COC(=O)CCC(=O)NNC(=O)CCC(=O)Nc1cccc(Cl)c1C
3. Cc1ccc(S(=O)(=O)NCc2ccccc2)cc1C(=O)NC1CCCCC1
4. Cc1ccc(C(=O)NC(=S)N2CCN(C)CC2)cc1
5. O=C(/C=C/c1ccccc1)C1C(=O)c2ccccc2C1=O
6. COC(=O)C(C)Sc1ccc2nnc(-c3cccc(F)c3)n2n1 (stereo not shown)
7. CC(=O)c1ccc(N2CCN(C(=O)[C@H](C)NC(=O)c3ccccc3Cl)CC2)cc1

1. 14.6%
2. 6.61%
3. 15.9%
4. -1.37%
5. -0.201%
6. -58%
7. -9.57%

List the reported hERG current change (%, negative = inhibition) at 10uM of each molecule below.
1. CC(=O)c1ccc(NC(=O)Nc2ccc(Br)cc2C)cc1
2. CC1CCN(CCNC(=O)c2ccc3c(=O)n(Cc4ccc(Cl)cc4)c(=S)[nH]c3c2)CC1
3. Cc1ccc(N2CC(C(=O)OCc3nc(N)nc(Nc4ccccc4C)n3)CC2=O)cc1 (stereo not shown)
4. COc1ccc(S(=O)(=O)Nc2cc(C(=O)NCCCN3CCOCC3)ccc2N2CCOCC2)cc1
5. OCCCc1nc2ccccc2n1CCCCOc1ccccc1
6. COC(=O)C(C)Sc1ccc2nnc(-c3ccc(F)cc3)n2n1 (stereo not shown)
7. Nc1nc(COC(=O)C2CC(=O)N(CCc3ccccc3)C2)nc(Nc2ccccc2)n1 (stereo not shown)
8. O=C(Nc1cccnc1Cl)c1cc(-c2ccccc2O)on1

1. 22.3%
2. -15.8%
3. -32.8%
4. 25%
5. -57.2%
6. -27%
7. -52.2%
8. -5.16%

###

Kindly supply the reported hERG current change (%, negative = inhibition) at 10uM values for the records listed here.
molecular target: human ether-à-go-go-related gene (hERG) potassium channel (human, UniProt Q12809); assay: primary screen, population patch clamp on CHO cells stably expressing hERG; higher = less effect of the substance;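 also: peak tail current of the secondary pulse compared with the same well before compound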
The campaign covered roughly 310,000 compounds. About 14,000 (4.5%) showed an effect of 50% or more. The effect is printed as a negative number. Only a selection was taken, and strong results are over-represented in it overall.
Answers are plain numbers, in %.

Worked cases, hERG current change (%, negative = inhibition) at 10uM given:
1) CC(=O)N1CC(C)Oc2ccc(S(=O)(=O)Nc3ccc(Cl)cn3)cc21 (stereo not drawn) = 3.04
2) COc1ccc(-c2ccnc3c(C#N)cnn23)cc1 = 6.06
3) C=CCn1c(COc2ccc(Cl)cc2)nnc1SCC(=O)N/N=C/c1ccccc1 = -7.71
4) O=C(Nc1c2c(nc3ccccc13)CCCC2)c1ccccc1Cl = 17.2
5) Cc1ccccc1C(=O)Nc1c2c(nc3ccccc13)CCCC2 = -5.54
6) CC(=O)c1ccc(Nc2c3c(nc4ccccc24)CCCC3)cc1 = -53.3
7) O=C(O)c1cccc(Nc2c3ccccc3nc3ccccc23)c1 = 19.7
8) Cc1cc(=O)c2ccc3ccccc3c2[nH]1 = 7.45
9) Cc1cc(=O)[nH]c(SCC(=O)N2CCCC(C)C2)n1 (stereo not drawn) = 11.3
10) COc1cccc(C(=O)NC2CCSC2=O)c1 (stereo not drawn) = 23.8

List the reported hERG current change (%, negative = inhibition) at 10uM of each compound below.
1. N#Cc1cnn2c(-c3cccc(C(F)(F)F)c3)ccnc12
2. C=CCn1c(COc2ccccc2)nnc1SCC(=O)C(C)(C)C
3. COc1cccc(C2C(=O)c3ccccc3C2=O)c1
4. O=C(NC(=O)c1csnn1)Nc1ccccc1Cl
5. C=C(C)C1CC=C(C)/C(=N/NC(=O)COc2cccc3ccccc23)C1 (stereo not drawn)
6. O=C(NNC1CC(=O)N(c2ccc(Br)cc2)C1=O)c1ccccn1 (stereo not drawn)
7. COc1ccc(C)cc1NC(=O)C(NCC(O)c1ccccc1)c1ccccc1.O=C(O)C(=O)O (stereo not drawn)
8. NC(=S)c1cnn2c(-c3cccc(C(F)(F)F)c3)ccnc12

1. -52.8
2. -13.6
3. 16.9
4. 9.03
5. 10.9
6. -4.01
7. -21.7
8. 14.2

List the reported hERG current change (%, negative = inhibition) at 10uM of each compound below.
1. C=CCN(C(=O)CCC(=O)Nc1cc(C)on1)C(C(=O)NC1CCCC1)c1ccc(C)cc1 (stereo not drawn)
2. CN(C)c1nc(NCc2ccccc2)nc(N/N=C/c2ccc(Br)cc2)n1
3. COc1ccc(F)c(CN2CCN(CCc3ccccc3)C(CCO)C2)c1 (stereo not drawn)
4. CC(C)C(OC(=O)CN1C(=O)COc2ccccc21)C(=O)NC1CCCCC1 (stereo not drawn)

1. 0.416
2. 13.3
3. -55.9
4. -9.89

List the reported hERG current change (%, negative = inhibition) at 10uM of each compound below.
1. C=CCn1c(COc2ccccc2)nnc1SCC(=O)O
2. COc1cccc(NC(=O)C2C3C=CC(C3)C2C(=O)O)c1 (stereo not drawn)
3. COc1ccc(CN2CCN(CCc3ccccc3)C(CCO)C2)c(O)c1 (stereo not drawn)
4. Cc1nn(C)c(C)c1NC(=O)c1cnn2c(C(F)F)cc(-c3ccccc3)nc12
5. CCOc1cccc2cc(C(=O)NCc3cccnc3)c(=O)oc12
6. CC(=O)c1cccc(Nc2c3c(nc4ccccc24)CCC3)c1.Cl
7. Cc1cc(Cl)ccc1OCC(=O)N/N=C/c1ccncc1
8. Cc1ccc(C)c(NC(=O)C(c2ccccc2)N2CCOCC2)c1 (stereo not drawn)

1. -3.46
2. 8.61
3. -71.7
4. 40.4
5. -1.94
6. -68.8
7. -14.9
8. -10.6

List the reported hERG current change (%, negative = inhibition) at 10uM of each compound below.
1. C=CCn1c(COc2ccccc2)nnc1SCc1ccc(C#N)cc1
2. C=CCn1c(COc2ccc(Cl)cc2)nnc1SCC(=O)NCC(=O)OCC
3. C=CCn1c(COc2ccc(Cl)cc2)nnc1SCc1ccc(C#N)cc1

-68.2
-31.4
-69.8
